Target: T1, human B7-H4 on the cell surface (human, UniProt Q7Z7D3 25-282)
T1 sequence: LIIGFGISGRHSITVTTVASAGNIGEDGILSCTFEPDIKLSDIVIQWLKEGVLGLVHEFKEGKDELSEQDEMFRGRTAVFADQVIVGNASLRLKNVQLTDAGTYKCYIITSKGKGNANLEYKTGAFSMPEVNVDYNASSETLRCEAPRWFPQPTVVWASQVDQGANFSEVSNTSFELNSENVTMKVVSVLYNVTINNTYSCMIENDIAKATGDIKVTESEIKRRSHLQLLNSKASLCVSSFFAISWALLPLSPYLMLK
Assay: cell-based or functional assay
READOUT_LABEL: aAPC Assay EC50 (IFNγ production) (nM)
Give bare numbers, in nM.

*Q* Which aAPC Assay EC50 (IFNγ production) reading was recorded for the binder B7-H4 antibody 20500 (antibody, human IgG1, kappa, V domains shown, human IgG1/kappa) VH: QLQLQESGPGLVKPSETLSLTCTVSGGSIKSGSHYWGWIRQPPGKGLEWIGNIYYSGSTYYNPSLRSRVTISVDTSKNQFSLKLSSVTAADTAVYYCAREGSYPNWFDPWGQGTLVTVSS VL: EIVMTQSPATLSVSPGERATLSCRASQSVSSNLAWYQQKPGQAPRLLIYGASTRATGIPARFSGSGSGTEFTLTISSLQSEDFAVYYCQQYHSFPFTFGGGTKVEIKR ?
*A* 0.84

// data source = patent US20240043542A1
